- ASSAY_TEXT: Toxicity liver stage against HepG2, at 10uM
- Type: cell-based
- Parameters: test concentration 10 uM, cell line HepG2-A16-CD81EGFP
- CONDITION_DETAILS: human, HepG2-A16-CD81EGFP cells; read-out: INHIBITION
ASSAY_METRIC: cytotoxicity at 10 µM (%)

compound="Cn1cnc2c1C(COCC1CC1)CN(C(=O)Cc1ccsc1)C2 (centres undefined)" unit_abbreviation=% quantitative_readout=-2.67
compound="CC(=O)N1N=C(c2cccs2)OC1C(=O)Nc1ccc(C(C)C)cc1 (centres undefined)" unit_abbreviation=% quantitative_readout=-12.7
compound="COCCn1cc(C(=O)N2CCCC2c2ccc(F)cc2)ccc1=O (centres undefined)" unit_abbreviation=% quantitative_readout=-0.12
compound=COc1cc2c(cc1CCC(=O)O)CCC2 unit_abbreviation=% quantitative_readout=1.11
compound=COc1ncccc1CN1CC[C@@]2(O)CCN(C(=O)C3CCC3)C[C@H]2C1 unit_abbreviation=% quantitative_readout=9.31
compound=O=C(O)Cc1cccc(-n2ccnc2-c2ccc(Cl)s2)c1 unit_abbreviation=% quantitative_readout=0.185
compound="CCOC(=O)N1CCC(NC(=O)c2cccc(C3CCCNC3)c2)CC1 (centres undefined)" unit_abbreviation=% quantitative_readout=1.34
compound="Cn1cnnc1C1CCCN(C(=O)COc2ccccc2Cl)C1 (centres undefined)" unit_abbreviation=% quantitative_readout=-14.2
compound="Cn1c(Cn2ccnc2)nnc1C1CCCN(C2CCCCC2)C1 (centres undefined)" unit_abbreviation=% quantitative_readout=-13.2
compound=Cc1ccc2nc(C(=O)N3C[C@@H](C(=O)O)[C@H](c4cccnc4)C3)cn2c1 unit_abbreviation=% quantitative_readout=2.98
compound=Cc1cccc(N(C)S(=O)(=O)c2cc(C(=O)O)cs2)c1C unit_abbreviation=% quantitative_readout=-0.731
compound=Cc1cc(N2CCN(C(=O)c3cnn(C(C)C)c3)CC2)cc(C)n1 unit_abbreviation=% quantitative_readout=-15.2
compound=COc1cccc(CC(=O)N2CCCN(c3ccnc(C)c3)CC2)c1 unit_abbreviation=% quantitative_readout=-7.06
compound="Cn1cnc2c1C(C(=O)N1CCCC1)N(CC1CC1)CC2 (centres undefined)" unit_abbreviation=% quantitative_readout=6.37
compound=Cc1nc2oc(C(=O)N3CCOCC3)c(N)c2c2c1CCCC2 unit_abbreviation=% quantitative_readout=-2.8
compound=CN(C(=O)Cc1cccs1)C1CCN(c2ccccn2)CC1 unit_abbreviation=% quantitative_readout=-3.54
compound=CCc1nc(COc2ccc(N(C)C(C)=O)cc2)no1 unit_abbreviation=% quantitative_readout=-0.408
compound="O=S(=O)(CCC1CCCO1)NCc1ncc(-c2ccccc2)o1 (centres undefined)" unit_abbreviation=% quantitative_readout=3.7
compound="c1ccc(Cn2cc3c(n2)C(CNCc2ccco2)OCC3)nc1 (centres undefined)" unit_abbreviation=% quantitative_readout=-7.85
compound=COc1ccc(OCc2nc(C(=O)N3CCCNC(=O)C3)co2)cc1 unit_abbreviation=% quantitative_readout=-45.1
compound=CCCN(Cc1ccc(C#N)cc1)Cc1nnsc1Cl unit_abbreviation=% quantitative_readout=-58.4
compound="CC(=O)N1CCCC(C(=O)Nc2ccccc2Cc2ccccc2)C1 (centres undefined)" unit_abbreviation=% quantitative_readout=3.88
compound=O=C1NC2(CCN(CC(=O)N3CCOCC3)CC2)Nc2ccc(Br)cc21 unit_abbreviation=% quantitative_readout=-0.445
compound="CNC(=O)C1CCC2(CCN(c3nncs3)CC2)CO1 (centres undefined)" unit_abbreviation=% quantitative_readout=6.01

====

- ASSAY_TEXT: Toxicity liver stage against HepG2, at 10uM
- Type: cell-based
- Set-up: test concentration 10 uM, cell line HepG2-A16-CD81EGFP
- CONDITION_DETAILS: human, HepG2-A16-CD81EGFP cells; read-out: INHIBITION
ASSAY_METRIC: cytotoxicity at 10 µM

molecule="CCSCCC(C)N(C)C(=O)c1ccc2nncn2c1 (configuration not stated)" result=-5.4%
molecule="Cc1nccn1C1CCCN(C(=O)c2cc3ccccc3[nH]2)C1 (configuration not stated)" result=-12.2%
molecule="Cc1noc(C)c1CN1CC2(CCN(C(=O)c3cc[nH]n3)C2)CC1=O (configuration not stated)" result=12.2%
molecule=C[C@H](O)CNc1cc(-c2ccncc2)ncn1 result=-11.1%
molecule=O=S(=O)(NCCc1c[nH]c2ccc(F)cc12)C1CCOCC1 result=4.13%
molecule="Cc1ccc(N2CCCC3(COCCN(c4nccs4)C3)C2)nn1 (configuration not stated)" result=-1.05%
molecule=CCc1nc(CN2CCCN(C(=O)COCC3CC3)CC2)cs1 result=-5.2%
molecule="CCC(C)c1csc(NC(=O)c2sc(-c3nnc[nH]3)nc2C)n1 (configuration not stated)" result=-35.5%
molecule="CC(=O)N1CCCC1c1cncc(Oc2ccc(F)cc2)n1 (configuration not stated)" result=-15.8%
molecule="Cc1ccccc1OCCN1CCCC(c2cc(C(N)=O)[nH]n2)C1 (configuration not stated)" result=-14.3%
molecule=Cc1ccc(C(=O)NCCS(=O)(=O)Cc2ccccc2)c(C)c1 result=-5.09%
molecule=O=C(Nc1ccc(Cn2cccn2)cc1)N1CCC(CO)CC1 result=47.8%

====

- ASSAY_TEXT: Toxicity liver stage against HepG2, at 10uM
- Format: cell-based
- Set-up: test concentration 10 uM, cell line HepG2-A16-CD81EGFP
- CONDITION_DETAILS: human, HepG2-A16-CD81EGFP cells; read-out: INHIBITION
ASSAY_METRIC: cytotoxicity at 10 µM (%)

compound="CC1CCN(C(=O)C(C)n2cc(Br)cn2)CC1 (stereo not drawn)" quantitative_readout=11.3
compound=COC[C@]12COC[C@H]1CN(C(=O)C1CC(F)(F)C1)C2 quantitative_readout=5.83
compound=O=C(CCNc1ncccn1)N1CCCN(c2nccs2)CC1 quantitative_readout=-14.3
compound=Cn1cnnc1CNC(=O)Nc1ccc(OC2CCC2)c(F)c1 quantitative_readout=1.03
compound=CCOc1ccccc1CC(=O)N1C[C@H](C2CC2)[C@@H](N)C1 quantitative_readout=-2.45
compound="CCc1ccc(C(C)NC(=O)CN(C)Cc2ccc(C)o2)cc1 (stereo not drawn)" quantitative_readout=18.4
compound="COc1ccc(OC)c(C(C)NC(=O)c2nn(C)c(C)c2Br)c1 (stereo not drawn)" quantitative_readout=5.38
compound=O=C(CSc1ccccc1)N1CCc2c(ncnc2N2CCOCC2)C1 quantitative_readout=-7.15
compound="CC(CO)NC(=O)Nc1ccc(CC#N)cc1 (stereo not drawn)" quantitative_readout=-3.39
compound="CCC(O)CN1CCN(C(=O)c2cccc3c2OCC(=O)N3)CC1 (stereo not drawn)" quantitative_readout=-7.55
compound=O=C(CCN1CCCCO1)N1CCC(CO)(Cc2ccccc2)CC1 quantitative_readout=7.26
compound="O=C(Nc1ccccn1)NC1CCN(c2ccccc2OC(F)F)C1 (stereo not drawn)" quantitative_readout=11.7
compound="O=C(O)C1c2nc[nH]c2CCN1Cc1cc(-c2ccccc2)no1 (stereo not drawn)" quantitative_readout=-11.4
compound="COc1cccc(C(C(=O)O)N2CCSCC2)c1F (stereo not drawn)" quantitative_readout=-12.9
compound=CCc1nc(C)sc1CN(Cc1ccncc1)C1CCN(C)CC1 quantitative_readout=6.4
compound=Cn1cnc2c1CCN(Cc1c(Cl)ccc3cccnc13)C2 quantitative_readout=5.55
compound=CCc1noc(CN(C)CCC(=O)Nc2ccccc2C#N)n1 quantitative_readout=9.69
compound=CN(C)C(=O)CN1CCC2(CC1)CC(=O)c1c(ccc3ccccc13)O2 quantitative_readout=3.28
compound="Cc1n[nH]c(C2CN(C(=O)COCC(F)(F)F)CCO2)n1 (stereo not drawn)" quantitative_readout=1.26
compound=Cc1cnc(NCCCN2CCc3ccccc32)nc1 quantitative_readout=2.24
compound=COCCNC(=O)[C@H]1C[C@H]2OCC[C@H]2N(Cc2ccoc2)C1 quantitative_readout=-75.7
compound="CCN(C)S(=O)(=O)N1CCCC(c2nc(-c3ccccc3)c[nH]2)C1 (stereo not drawn)" quantitative_readout=-8.02
compound="CCc1ccc(CN2Cc3nccn3CC(Cn3cncn3)C2)o1 (stereo not drawn)" quantitative_readout=-137
compound="COc1ccc(CCC(C)Nc2cccc(SC)c2)cc1 (stereo not drawn)" quantitative_readout=-1.11
compound=Cn1cc(CN(C(=O)c2ccc3ncsc3c2)C2CC2)cn1 quantitative_readout=3.11
compound=O=C(NCC1CCOCC1)[C@@H]1CC[C@@H]2[C@@H](CCN2Cc2ccncc2)O1 quantitative_readout=4.85
compound="COc1cc(F)c(C(C)NC(=O)c2cccnc2C)cc1OC (stereo not drawn)" quantitative_readout=38
compound=O=C(c1cc(C2CC2)[nH]n1)N1CCN(c2nccs2)CC1 quantitative_readout=1.39
compound="Cc1cccc2c(CCNS(=O)(=O)C3CCOC3)c[nH]c12 (stereo not drawn)" quantitative_readout=12.7
compound="O=C(c1cnccn1)N1CCC2(CCCN(Cc3ccoc3)C2)C1 (stereo not drawn)" quantitative_readout=-139
compound=O=C(NC1CC1)c1cc(NC(=O)N2CCSCC2)ccc1Cl quantitative_readout=-22.5
compound=C[C@]1(O)CN(Cc2cccc(C(=O)O)c2)CC[C@@H]1Oc1cccc(F)c1 quantitative_readout=-5.64
compound=O=C(O)[C@@H]1CN(C(=O)CCN2CCCCC2)C[C@H]1c1ccccc1 quantitative_readout=1.25
compound=Cc1nc(CNCc2c(C(C)C)nn(C)c2N2CCOCC2)cs1 quantitative_readout=-2.51
compound=COc1cccc(CCCN2CCC(N(C)S(C)(=O)=O)CC2)c1 quantitative_readout=-3.88
compound="COc1cccc(CC(=O)NC(C)c2nc3cccnc3n2C(C)C)c1 (stereo not drawn)" quantitative_readout=-22.6
compound=COc1ccc(CNc2c(N3CCN(C)CC3)c(=O)c2=O)cc1 quantitative_readout=2.4
compound="COCc1nc(NC(C)c2c(C)n[nH]c2C)c2cnn(C)c2n1 (stereo not drawn)" quantitative_readout=-13.4
compound="CN1CC(=O)N(C2CCCNC2)Cc2c(NC3CCC3)ncnc21 (stereo not drawn)" quantitative_readout=3.96
compound=CC(C)CSCCCNC(=O)C1CCOCC1 quantitative_readout=-3.65
compound="Cn1ccc(C(=O)N2CCOC(c3ccccc3)C2)cc1=O (stereo not drawn)" quantitative_readout=-0.944
compound=Cc1cc(=O)n(C)cc1NC(=O)NCc1cccc(F)c1 quantitative_readout=-5.3
compound=O=C(c1cscn1)N1CCc2ncc(Cn3cncn3)n2CC1 quantitative_readout=-68.9
compound="CCC(NC(=O)CS(=O)(=O)C1CCCC1)c1cc(F)ccc1F (stereo not drawn)" quantitative_readout=0.217
compound="CC(NCCCn1ccnc1)c1ccc(N2CCCS2(=O)=O)cc1 (stereo not drawn)" quantitative_readout=-7.49
compound=Cc1nn(CCC#N)c(C)c1CCC(=O)N(C)C quantitative_readout=-7.33
compound=CN(CC(=O)NCc1cccnc1N1CCCCC1)C(=O)c1cccs1 quantitative_readout=-14.8
compound=Cc1cc(CN2CCN(C(=O)CCc3ccco3)CC2)on1 quantitative_readout=-2.6
